Every entry's value here was drawn from paper PMC7413254.

# study_target: PfCRT^Dd2 (Plasmodium falciparum, UniProt Q9N623, A220S/I356T/K76T/M74I/N326S/N75E/Q271E/R371I)
# Sequence (Q9N623 whole entry A220S/I356T/K76T/M74I/N326S/N75E/Q271E/R371I): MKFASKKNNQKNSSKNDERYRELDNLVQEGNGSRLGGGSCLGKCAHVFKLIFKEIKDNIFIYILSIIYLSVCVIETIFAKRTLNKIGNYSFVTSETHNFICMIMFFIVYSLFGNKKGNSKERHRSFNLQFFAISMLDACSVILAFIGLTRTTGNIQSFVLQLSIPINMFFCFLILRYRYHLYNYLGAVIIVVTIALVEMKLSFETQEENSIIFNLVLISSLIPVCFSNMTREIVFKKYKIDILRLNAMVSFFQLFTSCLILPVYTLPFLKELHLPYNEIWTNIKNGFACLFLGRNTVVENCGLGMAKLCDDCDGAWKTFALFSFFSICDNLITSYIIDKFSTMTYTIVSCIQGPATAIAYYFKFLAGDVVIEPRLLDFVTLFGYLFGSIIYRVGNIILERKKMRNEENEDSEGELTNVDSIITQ
# assay_text: [3H]CQ uptake into Xenopus oocytes, cis-inhibition by unlabelled solute
# Assay type: cell-based
# condition_details: [test solute] = 1 mM; PfCRTDd2 oocytes; background [3H]CQ accumulation subtracted; normalised to oocyte type control
# Protocol: The orientation of PfCRT in the parasite’s DV membrane, and also in the oocyte plasma membrane, is such that its N- and C-termini extend into the cytosol. The oocytes were suspended in a reaction buffer adjusted to pH 5.5 to mimic the pH of the DV lumen[1],[2]. […] Unless specified otherwise, this is the direction in which substrate transport was measured in the oocyte assays. […]
Kindly supply the reported PfCRT-mediated [3H]CQ transport, cis-inhibition (% PfCRTDd2 control) values for the records listed here.
Provide the reading as a plain figure in % PfCRTDd2 control.

INPUT: Give a short answer stating reported PfCRT-mediated [3H]CQ transport, cis-inhibition (% PfCRTDd2 control) for LSDLHAHK [LK-8] .
OUTPUT: 51

INPUT: Give PfCRT-mediated [3H]CQ transport, cis-inhibition (% PfCRTDd2 control) for the following substance: HVDDMPNA [HA-8]
OUTPUT: 27

INPUT: Please indicate PfCRT-mediated [3H]CQ transport, cis-inhibition (% PfCRTDd2 control) recorded for HVDDMPN [HN-7]
OUTPUT: 20

INPUT: Output measured PfCRT-mediated [3H]CQ transport, cis-inhibition (% PfCRTDd2 control) for this item: EFTPPVQA [EA-8]
OUTPUT: 27

INPUT: Respond only with PfCRT-mediated [3H]CQ transport, cis-inhibition (% PfCRTDd2 control) recorded for DLHAHKLR [DR-8]
OUTPUT: 31

INPUT: Check the records and state PfCRT-mediated [3H]CQ transport, cis-inhibition (% PfCRTDd2 control) for VVYPWTQR [VR-8]
OUTPUT: 22

INPUT: Supply recorded PfCRT-mediated [3H]CQ transport, cis-inhibition (% PfCRTDd2 control) for LHVDPENF [LF-8] here.
OUTPUT: 21

INPUT: Kindly indicate its recorded PfCRT-mediated [3H]CQ transport, cis-inhibition (% PfCRTDd2 control). Item: FPHFDLS [FS-7]
OUTPUT: 19

INPUT: Supply reported PfCRT-mediated [3H]CQ transport, cis-inhibition (% PfCRTDd2 control) belonging to this substance: VLSPAD [VD-6]
OUTPUT: 28

INPUT: Report measured PfCRT-mediated [3H]CQ transport, cis-inhibition (% PfCRTDd2 control); entry is EFTPPVQ [EQ-7]
OUTPUT: 28

INPUT: Fill in PfCRT-mediated [3H]CQ transport, cis-inhibition (% PfCRTDd2 control) for record DLDDALDK [DK-8]
OUTPUT: 32

* * *

# study_target: PfCRT^Ecu1110 (Plasmodium falciparum, UniProt Q9N623, A220S/I356L/K76T/N326D)
# Sequence (Q9N623 whole entry A220S/I356L/K76T/N326D): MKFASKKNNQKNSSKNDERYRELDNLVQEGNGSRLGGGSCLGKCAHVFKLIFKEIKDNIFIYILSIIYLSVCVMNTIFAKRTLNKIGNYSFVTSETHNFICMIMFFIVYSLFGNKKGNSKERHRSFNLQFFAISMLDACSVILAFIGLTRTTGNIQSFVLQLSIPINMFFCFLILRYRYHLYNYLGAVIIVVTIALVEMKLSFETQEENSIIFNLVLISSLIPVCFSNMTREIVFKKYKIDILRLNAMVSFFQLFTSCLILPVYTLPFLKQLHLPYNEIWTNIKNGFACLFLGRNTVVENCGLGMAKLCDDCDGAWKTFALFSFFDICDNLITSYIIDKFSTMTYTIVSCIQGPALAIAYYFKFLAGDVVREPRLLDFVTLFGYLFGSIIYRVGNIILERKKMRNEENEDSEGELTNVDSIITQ
# assay_text: [3H]CQ uptake into Xenopus oocytes, cis-inhibition by unlabelled solute
# Type: cell-based
# condition_details: cis-inhibition; [test solute] = 2 mM; PfCRT-mediated component (background subtracted), sheet title says normalised to PfCRTDd2 control; mean ± SEM; SEM
quantity_kind: [3H]CQ transport (% PfCRTEcu1110 control), cis-inhibition, PfCRTEcu1110
Unit % PfCRTEcu1110 control implied. Number only.

INPUT: Report [3H]CQ transport (% PfCRTEcu1110 control), cis-inhibition, PfCRTEcu1110 for DMPNALS [DS-7, host-derived peptide upstream of PL-4]
OUTPUT: 9.0

INPUT: Tell us which [3H]CQ transport (% PfCRTEcu1110 control), cis-inhibition, PfCRTEcu1110 value is on record for DLDDALDK [DK-8]
OUTPUT: 9.0

INPUT: Report measured [3H]CQ transport (% PfCRTEcu1110 control), cis-inhibition, PfCRTEcu1110; entry is DPENFR [DR-6]
OUTPUT: 9.0
